# measuredOn: recombinant homotrimeric HA, A/swine/Ontario/01911-2/99 H4N6 (Influenza A virus A/swine/Ontario/01911-2/99 (H4N6))
# assayNotes: trimeric HA microarray, transfection set 5
# experimentalParameters: remark: other sources report otherwise
Catalogue of Trimeric HA Binding RLU values

{"binder": "TCN-523 (5248_A17) (antibody, V domains shown) VH: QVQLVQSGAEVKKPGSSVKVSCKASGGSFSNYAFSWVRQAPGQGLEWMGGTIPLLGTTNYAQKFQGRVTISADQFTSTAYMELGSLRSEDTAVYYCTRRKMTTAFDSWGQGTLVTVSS VL: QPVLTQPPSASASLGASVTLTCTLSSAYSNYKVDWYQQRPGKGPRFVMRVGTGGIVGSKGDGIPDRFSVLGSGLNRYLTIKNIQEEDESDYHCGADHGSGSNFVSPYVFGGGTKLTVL", "Trimeric HA Binding RLU / RLU": 1700}
{"binder": "TCN-552 (5249_I23) (antibody, V domains shown) VH: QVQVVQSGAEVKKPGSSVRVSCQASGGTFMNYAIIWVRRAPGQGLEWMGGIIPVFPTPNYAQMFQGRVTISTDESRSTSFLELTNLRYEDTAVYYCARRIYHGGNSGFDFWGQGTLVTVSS VL: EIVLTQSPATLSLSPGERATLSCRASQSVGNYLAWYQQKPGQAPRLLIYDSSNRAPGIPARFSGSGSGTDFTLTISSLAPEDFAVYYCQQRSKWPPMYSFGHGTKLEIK", "Trimeric HA Binding RLU / RLU": 9080}
{"binder": "TCN-553 (5261_C18) (antibody, V domains shown) VH: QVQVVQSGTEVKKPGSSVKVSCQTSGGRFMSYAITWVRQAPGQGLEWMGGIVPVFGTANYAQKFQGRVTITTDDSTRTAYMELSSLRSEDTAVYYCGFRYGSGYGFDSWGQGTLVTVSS VL: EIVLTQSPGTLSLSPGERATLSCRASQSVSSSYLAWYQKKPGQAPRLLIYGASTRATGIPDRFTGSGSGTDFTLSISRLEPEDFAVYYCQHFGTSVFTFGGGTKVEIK", "Trimeric HA Binding RLU / RLU": 12200}
{"binder": "TCN-557 (5081_A04) (antibody, V domains shown) VH: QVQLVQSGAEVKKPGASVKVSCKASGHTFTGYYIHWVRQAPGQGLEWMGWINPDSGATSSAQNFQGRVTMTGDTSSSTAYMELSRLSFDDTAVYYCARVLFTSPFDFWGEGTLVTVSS VL: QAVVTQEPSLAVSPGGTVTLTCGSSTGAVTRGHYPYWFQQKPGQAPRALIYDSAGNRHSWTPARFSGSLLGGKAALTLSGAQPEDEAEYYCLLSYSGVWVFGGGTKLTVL", "Trimeric HA Binding RLU / RLU": 41500}
{"binder": "TCN-542 (5079_A16) (antibody, V domains shown) VH: QVQLQESGPGLVKPSQTLSLTCTVSGGSISSGNYYWNWVRQHPGKGLEWIGYIYYRGSTFYNPSLKSRVTISIDTSKNQFSLRLSSVTAADTAVYYCAKDTRSSLDNYQYGMDVWGQGTTVTVSS VL: QTVVTQEPSLTVSPGGTVTLTCASSTGAVTSSYFPNWFQQKPGQAPRPLIYSTTIRHSWTPARFSGSLLGGKAALTLSGVQPEDEADYYCLLYSGGDPVAFGGGTKLTVL", "Trimeric HA Binding RLU / RLU": 14300}

Source: patent US20120207760A1
